- protocol: log P by HPLC on reversed-phase column (EEC Directive 79/831 Annex V.A8)
- Assay type: physicochemical
- Method: In table 1, the log P values were determined in accordance with EEC Directive 79/831 Annex V.A8 by HPLC (High Performance Liquid Chromatography) on a reversed-phase column (C18), using the method described below: Temperature: 40° C.; […]
property: logP
One number for each entry.

Worked examples follow.
molecule: CC(C)CC1CCCCC1NC(=O)c1c(C(F)F)nn(C)c1F (stereo not shown)
measured: 3.94
--
molecule: CC(COc1cc(Cl)cc(Cl)c1)NC(=O)c1c(C(F)F)nn(C)c1Cl (racemic)
measured: 3.92

With those in mind, consider the next molecule.
May I ask what logP has been recorded for CC(CCc1cc(Cl)cc(Cl)c1)NC(=O)c1c(C(F)F)nn(C)c1Cl (stereo not shown) ?
4.01

* * *

Provide the reported logP of each item.
- protocol: log P by HPLC on reversed-phase column (EEC Directive 79/831 Annex V.A8)
- Type: physicochemical

Known results for compounds:
compound: CC(N(C(=O)c1c(C(F)F)nn(C)c1Cl)C1CC1)C(C)(C)Cc1ccc(Cl)cc1Cl (stereo not drawn)
logP: 5.39
//
compound: Cn1nc(C(F)F)c(C(=O)N(CCOc2ccc(-c3ccccc3)cc2)C2CC2)c1F
logP: 3.90
//
compound: CN(CCN(C)c1cccc(Cl)c1)C(=O)c1c(C(F)F)nn(C)c1Cl
logP: 3.19
//
compound: CN(CCCc1cc2ccccc2o1)C(=O)c1c(C(F)F)nn(C)c1F
logP: 3.00
//
compound: Cn1nc(C(F)F)c(C(=O)N(CCCc2cc3ccccc3s2)C2CC2)c1F
logP: 3.79

Please find the next compound below.
Field request: logP | item: CC(CSCc1ccco1)N(C)C(=O)c1c(C(F)F)nn(C)c1F (stereo not drawn)
2.49

* * *

I'd be grateful if you could share measured logP for these entries.
- protocol: log P by HPLC on reversed-phase column (EEC Directive 79/831 Annex V.A8)
- Type: physicochemical
- Method: In table 1, the log P values were determined in accordance with EEC Directive 79/831 Annex V.A8 by HPLC (High Performance Liquid Chromatography) on a reversed-phase column (C18), using the method described below: Temperature: 40° C.; […]
Numbers only.

For each listed entry, give its logP.
1. Cn1nc(C(F)F)c(C(=O)NC(C)(C)CCc2cccc(Cl)c2)c1Cl
2. Cn1nc(C(F)F)c(C(=O)N(C2CC2)C2CCCCC2Oc2ccccc2)c1F (centres unmarked) [Example 244]
3. CC(N(C(=O)c1c(C(F)F)nn(C)c1F)C1CC1)C(C)(C)Cc1ccccc1 (centres unmarked)

[4.01, 3.89, 4.06]

Batch of 2 molecules: report logP for each.
1. CC(C)CCC1CCCC1NC(=O)c1c(C(F)F)nn(C)c1F (centres unmarked)
2. CC(C)C(CCc1ccc(Cl)cc1)NC(=O)c1c(C(F)F)nn(C)c1F (centres unmarked)

1. 3.98
2. 3.94

* * *

- Tested on: Alternaria solani
- protocol: In vivo preventive test on Alternaria solani (tomato)
- run parameters: 500 ppm of active ingredient, evaluated 7 days after inoculation
property: Efficacy (%)
One number for each entry, in %.

For each of the compounds below, note its Efficacy.
1. CC(CCc1ccccc1Cl)NC(=O)c1c(C(F)F)nn(C)c1Cl (racemic)
2. CN(CCCc1cc(Cl)ccc1Cl)C(=S)c1c(C(F)F)nn(C)c1F
3. CC(CCc1ccc(C(F)(F)F)cc1)NC(=O)c1c(C(F)F)nn(C)c1Cl (stereo not drawn)

100
90
95

* * *

- protocol: log P by HPLC on reversed-phase column (EEC Directive 79/831 Annex V.A8)
- Assay type: physicochemical
Could you please report measured logP for the items listed next?

Below, 4 molecules whose answers are already recorded.
molecule: CC1CCCC(C)(C)C1CCC(C)N(C(=O)c1c(C(F)F)nn(C)c1Cl)C1CC1 (stereo not shown)
logP: 6.07
//
molecule: Cc1ccsc1CCC(C)NC(=O)c1c(C(F)F)nn(C)c1Cl (stereo not shown)
logP: 3.17
//
molecule: CC(CNC(=O)c1c(C(F)F)nn(C)c1F)Cc1ccc(Cl)c(Cl)c1 (racemic)
logP: 3.68
//
molecule: CC(COc1ccccc1)N(C)C(=O)c1c(C(F)F)nn(C)c1Cl (stereo not shown)
logP: 2.78

Please look at the items below and tell me logP for each one, in order.
1. CC(CC[Si](C)(C)C)N(C(=O)c1c(C(F)F)nn(C)c1F)C1CC1 (stereo not shown)
2. CC(O)C1CCCCC1NC(=O)c1c(C(F)F)nn(C)c1F (single isomer, unassigned) [Example 341]

1. 4.39
2. 1.72 isomer A

For the molecule `Cn1nc(C(F)F)c(C(=O)NC(C)(C)CCc2ccccc2Cl)c1F` , what logP is on record?
3.79

* * *

- System: Alternaria solani
- protocol: In vivo preventive test on Alternaria solani (tomato)
- run parameters: 500 ppm of active ingredient, evaluated 7 days after inoculation
property: Efficacy

Below, 4 compounds whose answers are already recorded.
compound: CC(COc1cc(Cl)cc(Cl)c1)NC(=O)c1c(C(F)F)nn(C)c1F (racemic) [Example 121]
measured: 90%
--
compound: CCC1(CNC(=O)c2c(C(F)F)nn(C)c2F)CCCCC1 [Example 366]
measured: 90%
--
compound: CC(CNC(=O)c1c(C(F)F)nn(C)c1F)Cc1cc(Cl)ccc1Cl (centres unmarked) [Example 165]
measured: 90%
--
compound: Cc1cccc(C)c1CC(C)CNC(=O)c1c(C(F)F)nn(C)c1Cl (racemic) [Example 149]
measured: 90%

Endpoint output: Efficacy of CC(C)CC(C)C1CCCC1NC(=O)c1c(C(F)F)nn(C)c1F (single isomer, unassigned) [Example 316] . Value?
90%

* * *

- protocol: log P by HPLC on reversed-phase column (EEC Directive 79/831 Annex V.A8)
- Type: physicochemical
property: logP

compound: CC(C)CC(C)C1CCCC1NC(=O)c1c(C(F)F)nn(C)c1F (single isomer, unassigned) [Example 317]
logP: 4.22 isomer B
//
compound: CC(C)CC(C)C1CCCC1NC(=O)c1c(C(F)F)nn(C)c1Cl (single isomer, unassigned) [Example 314]
logP: 4.47 isomer C
//
compound: CC(C)CC(C)C1CCCC1NC(=O)c1c(C(F)F)nn(C)c1F (single isomer, unassigned) [Example 318]
logP: 4.27 isomer C

Note: attention shifts to another entry.
Sample CC(C)CC(C)C1CCCCC1NC(=O)c1c(C(F)F)nn(C)c1Cl (single isomer, unassigned) [Example 334] — what was its logP?
4.75 isomer A

* * *

Could you please report measured logP for the items listed next?
- protocol: log P by HPLC on reversed-phase column (EEC Directive 79/831 Annex V.A8)
- Type: physicochemical
- Description: In table 1, the log P values were determined in accordance with EEC Directive 79/831 Annex V.A8 by HPLC (High Performance Liquid Chromatography) on a reversed-phase column (C18), using the method described below: Temperature: 40° C.; […]
Quote the value and follow it with the unit of measurement.

Below, each entry is followed by its recorded logP result.
compound: CC(O)C1CCCCC1NC(=O)c1c(C(F)F)nn(C)c1F (single isomer, unassigned) [Example 342]
logP: 2.08 isomer B

compound: CC(C)CC(C)C1CCCC1NC(=O)c1c(C(F)F)nn(C)c1Cl (single isomer, unassigned) [Example 313]
logP: 4.46 isomer B

Let us move to another entry and its logP.
So what does the record say about logP for Cn1nc(C(F)F)c(C(=O)NC2CCCCC2CCC(C)(C)C)c1F (single isomer, unassigned) [Example 358] ?
4.51 isomer B
